The reported measurements were obtained from the supplement of paper PMC6757056.

B1: library; a variant is named by its letters at N, in order (parent)
chain: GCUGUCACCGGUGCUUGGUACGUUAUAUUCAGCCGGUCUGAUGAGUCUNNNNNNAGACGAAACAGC

variants of: B1; assay: normalized RNA/DNA level with ligand (relative to sTRSVctl = 100) (log10 (% of sTRSVctl)); HEK293T overexpressing SLC46A1; ligand concentration (+) RNA-Seq: 6 mM; higher = less ribozyme self-cleavage, higher mRNA level; conditions: with (6R,S)-folinic acid; ligand present: yes
Documented normalized RNA/DNA level with ligand (log10) across a set of variants
Number only, please.

Example cases with answers are listed next.
* UAAGGU | 1.97
* UUCUAC | 1.98
* UGCCAC | 1.98

What does the data say about its normalized RNA/DNA level with ligand (log10)? Entry: "CUAACU" 2

Moving on to the next variant: "GCUGAG" 2.04

Moving on to the next variant: "GCCUGU" 2.06

Moving on to the next variant: "GUUCGC" 2.05

Moving on to the next variant: "AAAUGG" 2
